Measured values drawn from patent US7342122B2 for this set.

Recorded log10 IC50 (M), one value per entry.
# Tested on: SNB-75
# measurement.protocol: Cell growth inhibition, brain cancer cell line SNB-75
# Assay type: cell-based
# condition.label: SNB-75, brain cancer cell line

| compound | log10 IC50 (M) |
| --- | --- |
| [Cl-].[Cl-].c1cc[n+]2c(c1)-c1cccc[n+]1[Pt-2]21[NH2+]CCC[NH+]1Cc1c2ccccc2cc2ccccc12 | -5.59 |
| [Cl-].[Cl-].c1cc[n+]2c(c1)-c1cccc[n+]1[Pt-2]21[NH2+]CC[NH+]1Cc1c2ccccc2cc2ccccc12 [Example 4, [Pt(bpy)(Aten)]Cl2] | -4.77 |
| N.N.O.O.O.O.O.O.O.O=P([O-])([O-])OC1C(OP(=O)([O-])[O-])C(OP(=O)([O-])[O-])C(OP(=O)([O-])[O][Pt+])C(OP(=O)([O-])[O-])C1OP(=O)([O-])[O-].[Na+].[Na+].[Na+].[Na+].[Na+].[Na+].[Na+].[Na+].[Na+].[Na+] (stereo not shown) [Example 9, Pt(NH3)—IP6 Pt(NH3)2.IP6.10Na.7H2O] | -5.51 |
| [Cl-].[Cl-].c1cc[n+]2c(c1)-c1cccc[n+]1[Pd-2]21[NH2+]CC[NH+]1Cc1c2ccccc2cc2ccccc12 [Example 5, [Pd(bpy)(Aten)]Cl2] | -5.16 |
